- target-or-system: TaALMT1 (Triticum aestivum, UniProt Q76LB1, F213C/F215C)
- Construct: full-length, untagged as told; cRNA from pGEMHE-DEST in Xenopus laevis oocytes; BY2 tobacco line for flux
- Sequence (Q76LB1 whole entry F213C/F215C): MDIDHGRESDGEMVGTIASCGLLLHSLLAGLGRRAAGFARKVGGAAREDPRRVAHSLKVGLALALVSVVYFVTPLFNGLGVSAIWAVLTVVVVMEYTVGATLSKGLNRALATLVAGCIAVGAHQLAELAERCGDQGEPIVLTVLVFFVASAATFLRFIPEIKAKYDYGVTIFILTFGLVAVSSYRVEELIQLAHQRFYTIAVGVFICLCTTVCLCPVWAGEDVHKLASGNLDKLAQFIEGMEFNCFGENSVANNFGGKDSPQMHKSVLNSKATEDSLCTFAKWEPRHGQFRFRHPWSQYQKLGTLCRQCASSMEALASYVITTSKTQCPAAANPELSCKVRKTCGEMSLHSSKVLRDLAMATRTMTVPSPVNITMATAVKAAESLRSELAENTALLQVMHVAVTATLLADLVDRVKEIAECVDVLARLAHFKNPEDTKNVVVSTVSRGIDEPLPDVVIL
- assay-notes: two-electrode voltage clamp, X. laevis oocytes
- conditions-used: read-out: half-maximal effective concentration
pEC50: −log10 of the molar value.
value-type: pEC50

pEC50 for NCCCC(=O)O [GABA] is < 3.00

The reported numbers originate from paper PMC4532832.
